ASSAY_METHOD_TEXT: xn = mol fraction of the nth substance listed, in the solute-free solvent
TEST_CONDITIONS: 303.15 K; x2 = 0.9
Cut-off 20 on solubility (g/100 g solution), inclusive. At or above means yes (1); below means no (0).

{"columns": ["COMPOUND", "CATEGORY"],
 "data": [
  ["Cc1ncc(CO)c(CO)c1O.Cl + O + CCCO", "no (0)"]
]}

## Task Given the entry CCOc1ccccc1C(N)=O + CC#N + CC(C)O , answer whether its solubility (g/100 g solution) meets or surpasses 20.
## Result no (0)

## Task Would you kindly repeat that for CCOc1ccccc1C(N)=O + CO + CC#N ?
## Result no (0)

## Task Try the compound Cc1c(Br)c(=O)n(C2CCCC2)c2nc(Cl)ncc12 + CC1=CC(=O)CC(C)(C)C1 + CC(C)O
## Result no (0)

## Task Now the compound Cc1c(Br)c(=O)n(C2CCCC2)c2nc(Cl)ncc12 + CCOC(C)=O + CCO
## Result no (0)

## Task Please do the same for COC(=O)C(N)CS.Cl (centres undefined) + CCO + ClCCl as well.
## Result no (0)

## Task Now give it for Cl.NC(Cc1ccccc1)C(=O)OCc1ccccc1 (centres undefined) + CO + CC(C)=O too.
## Result no (0)

## Task And for O=C(NC(C(=O)O)c1ccccc1)OCc1ccccc1 (centres undefined) + CCO + O ?
## Result yes (1)

## Task Now consider Cc1c(Br)c(=O)n(C2CCCC2)c2nc(Cl)ncc12 + C1CCOC1 + CCO .
## Result no (0)
